Each record here notes measured cross-competition score.
Biological target: T1, Human Siglec-15, His Tag (human Siglec-15 full-length extracellular domain linked with His tag) (human, UniProt Q6ZMC9 20-263)
T1 construct: Bought from ACROBiosystems; also called Siglec-15 protein; SG5-H52H3
T1 sequence: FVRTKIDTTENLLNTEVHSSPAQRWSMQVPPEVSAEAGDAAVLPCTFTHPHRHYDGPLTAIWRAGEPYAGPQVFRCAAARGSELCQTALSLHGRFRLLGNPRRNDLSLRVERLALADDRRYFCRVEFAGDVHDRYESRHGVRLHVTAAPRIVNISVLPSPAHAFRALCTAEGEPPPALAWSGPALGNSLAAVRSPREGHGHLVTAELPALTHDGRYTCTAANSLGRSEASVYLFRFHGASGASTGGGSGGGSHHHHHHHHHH
Test: Octet BLI epitope binning, Siglec-15 His on HIS1K sensor; competitor 174C11C9
measured-attribute: cross-competition score (%)

>>> readout_number("255C12B10 chimeric antibody (antibody, V domains shown, Mouse variable regions combined with human IgG1 (N297A) constant regions) VH: EVQLQQSGPELVKPGASVKMSCKASGYTFTGYNMNWVKQSHGKSLEWIGYINPNNGGTRYNQKFKGKATLTINKSSSTAYMELRSLTSEDSAVYYCARDYGIDYWGQGTTLTVSS VL: EIQMTQSPSSMSASLGDRITITCQATQDIVKNLNWYQQKPGKPPSFLIYYATELAEGVPSRFSGSGSGSDYSLTISNLESEDFADYYCLQFYEFPYTFGGGTKLEIK")
18.3
>>> readout_number("21F6C6 chimeric antibody (antibody, human IgG1, V domains shown, also called 21F6C6-mHL) VH: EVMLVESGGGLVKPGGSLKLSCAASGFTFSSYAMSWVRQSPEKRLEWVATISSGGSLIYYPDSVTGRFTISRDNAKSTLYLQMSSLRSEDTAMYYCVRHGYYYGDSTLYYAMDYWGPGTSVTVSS VL: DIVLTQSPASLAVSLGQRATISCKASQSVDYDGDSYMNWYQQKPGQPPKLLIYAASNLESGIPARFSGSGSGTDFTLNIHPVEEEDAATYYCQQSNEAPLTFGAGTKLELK")
4.98
>>> readout_number("75E1F2 chimeric antibody (antibody, V domains shown, Mouse variable regions combined with human IgG1 (N297A) constant regions) VH: EVQLVESGGGSVKPGGSLKLSCAASGFTFSDYGMHWVRQAPEKGLEWITYISSGSSIIDYSDTVKGRFTISRDNAKDTLFLQMTSLRSEDTAIYYCVRREDHYAMDYWGQGTSVTVSS VL: DIVMTQSHKFLSTSVGDRVSITCKASQDVYTAVAWFQQKPGQSPKLLFYSASYRFTGVPDRFNGSGSGTDFTLTITSMQAEDLAVYYCQQHYSTPWTFGGGTKLEIK")
23
>>> readout_number("124B11F6 chimeric antibody (antibody, human IgG1, V domains shown, also called 124B11F6-mHL) VH: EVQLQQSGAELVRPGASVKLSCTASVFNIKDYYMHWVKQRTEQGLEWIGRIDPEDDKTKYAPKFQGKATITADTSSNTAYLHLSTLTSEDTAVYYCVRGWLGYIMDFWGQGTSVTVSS VL: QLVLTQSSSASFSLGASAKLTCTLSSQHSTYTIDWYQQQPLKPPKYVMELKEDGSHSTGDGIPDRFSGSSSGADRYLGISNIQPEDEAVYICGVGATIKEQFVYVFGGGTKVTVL")
79.5
